Catalogue of melting point readings, one per entry.

{"molecule": "CCSc1cccc(-c2c(F)cc(NC(=O)c3ccccc3C(=O)O)cc2F)c1 [Example 89]", "melting point": "162 to 167 °C"}
{"molecule": "O=C(O)c1ccccc1C(=O)Nc1c(F)cc(-c2cccc(OC(F)(F)F)c2)cc1F [Example 93]", "melting point": "158 to 160 °C"}

Quick note, melting point for O=C(O)c1ccccc1C(=O)Nc1c(F)cc(-c2ccccc2F)cc1Cl [Example 20] landed at 163 to 167 °C

// melting point lookup, molecule = CCCOc1cccc(-c2ccc(NC(=O)c3ccccc3C(=O)O)c(F)c2)c1 [Example 80] , result: 116 to 119 °C

The measured melting point associated with O=C(O)c1ccccc1C(=O)Nc1ccc(-c2cccc(OC3CC3)c2)cc1 [Example 95] reads 150.2 to 154.3 °C

melting point reported for this molecule CCCCOc1cccc(-c2ccc(NC(=O)c3ccccc3C(=O)O)cc2)c1 [Example 96] : 155 to 157 °C

// sample O=C(O)c1ccccc1C(=O)Nc1c(F)cc(-c2cccc(OC3CCCC3)c2)cc1F [Example 41] , its melting point was 153 to 156.5 °C

# melting point (molecule: O=C(O)c1ccccc1C(=O)Nc1c(Cl)cc(-c2ccccc2Cl)cc1Cl [Example 33] ) is 182 to 185 °C

The measured melting point associated with CCOc1cccc(-c2cc(F)c(NC(=O)c3ccccc3C(=O)O)c(F)c2)c1 [Example 5] reads 136 to 141 °C

Consider O=C(O)c1ccccc1C(=O)Nc1c(F)cc(-c2cccc(OC3CCCC3)c2)cc1Cl [Example 42] . Its measured melting point is 122 to 126 °C

melting point for COc1ccc(Cl)c(-c2ccc(NC(=O)c3ccccc3C(=O)O)cc2F)c1 [Example 79] is 185 to 187 °C

Recorded result, O=C(O)c1ccccc1C(=O)Nc1c(F)cc(-c2cccc(OC(F)(F)F)c2)cc1Cl [Example 39] , melting point: 153 to 156.5 °C
